tested on: HCC-2998 colon; assay: NCI tumour cell line growth inhibition, 48 h
observable: GI50

Could you tell me which GI50 is on file for Oc1ccc(/C=N\Nc2ccccn2)c(O)c1 ? 3 µM

Now consider c1ccc(Cc2nc3ccc(Nc4ncnc5ccccc45)cc3[nH]2)cc1 . > 25 µM

Now consider CCOP(=O)(OCC)C(NC(c1ccccc1)c1ccccc1)c1ccccc1 (stereo unspecified) . 14.8 µM

Now consider Cc1ccc(C(CN(C)C)C(=O)c2ccccc2)cc1 (stereo unspecified) . 6.62 µM

Now consider NC(=O)c1cnc(N[C@@H]2CCCC[C@@H]2N)nc1Nc1cccc(-n2nccn2)c1 . 1.99 µM

Now consider Cc1ccc2c(c1)nc(C(=O)c1ccco1)c(C(F)(F)F)[n+]2[O-] . > 100 µM

Now consider CC[C@]1(O)CC2CN(CCc3c([nH]c4ccccc34)[C@@](C(=O)OC)(c3cc4c(cc3OC)N(C)[C@H]3[C@@](O)(C(=O)OC)[C@H](OC(C)=O)[C@]5(CC)C=CCN6CC[C@]43[C@@H]65)C2)C1 (stereo partly specified) . < 0.005 µM

Now consider [Cl][Bi]([O]c1ccccn1)[O]c1ccccn1 . > 100 µM

Now consider CC(C)(C)N1CCC1C(N)=O (stereo unspecified) . > 100 µM

Now consider C[C@]12CCC3[C@@H](C[C@@H]4SC(Nc5ccccc5)=N[C@@]45CC(=O)CC[C@]35C)[C@@H]1CCC2=O (stereo partly specified) . 18.2 µM

Now consider CCN(Cc1cccc(OC)c1)c1ccc(CO)c(Cl)c1 . 12.5 µM

====

tested on: U251 CNS; assay: NCI tumour cell line growth inhibition, 48 h
Give measured TGI for each item. Keep answers brief.

Could you tell me which TGI is on file for C/C(O)=C(\N=O)C(=O)NCCc1ccccc1 ? > 100 µM

Now consider CCCN(CCCCC(NC(C)=O)C(=O)NCc1ccccc1)C(=O)NCCCl (stereo unspecified) . > 100 µM

Now consider Cc1cn([C@@H]2C[C@](C)(CO)N(C)O2)c(=O)[nH]c1=O . > 100 µM

Now consider N#CC(NNC(=O)c1ccccc1O)c1ccc(O)cc1 (stereo unspecified) . > 100 µM

Now consider CC(C)C(=O)/C=C/c1ccccc1 . > 100 µM

Now consider COc1ccc2c3c([nH]c2c1)-c1nc2ccccc2c(=O)n1CC3 . > 25 µM

Now consider CN(c1ccc(Cl)cc1)S(=O)(=O)c1ccccc1 . > 100 µM

Now consider O=C(O)c1cc2ccccc2c(O)c1O . 31 µM

Now consider CCN(CC)c1ccc(/C=C\c2cc(C)c3cc(C)ccc3n2)cc1 . > 100 µM

Now consider CCCCn1c2cc(OCc3cn(-c4ccc(Cl)cc4)nn3)ccc2c2ccnc(C)c21 . 12.6 µM

Now consider CC(=O)O[C@H]1C(=O)[C@@]2(C)C(C(OC(=O)c3ccccc3)[C@]3(O)CC(OC(=O)[C@H](OC(=O)CCC(=O)O)C(NC(=O)c4ccccc4)c4ccccc4)C(C)=C1C3(C)C)C1(OC(C)=O)COC1C[C@@H]2OC(=O)CCC(=O)O (stereo partly specified) . > 100 µM

Now consider Cn1c(O)c(/C=N/c2ncccn2)c(=O)[nH]c1=O . > 100 µM

Now consider C=C1C(=O)O[C@H]2[C@H]1CC/C(COC(=O)NCc1cc3ccccc3[nH]1)=C\CC[C@@]1(C)O[C@@H]21 . 16.4 µM

Now consider COc1ccc(/C=N/N=C(\N)NO)c(OC)c1OC . > 100 µM

Now consider C/C(=N\NC(=O)c1ccncc1)c1cccc(C(F)(F)F)c1 . > 10 µM

Now consider [N-]=[N+]=NC(c1cn(C2CC(O)C(CO)O2)c(=O)[nH]c1=O)C(Br)I (stereo unspecified) . > 100 µM

Now consider O=C(/C=C/c1ccc(OCC(=O)N2CCN(c3ccccc3)CC2)cc1)c1ccc(Cl)cc1 . 46 µM

Now consider Nc1ccc2c(SCCSc3c4ccccc4nc4cc(N)ccc34)c3ccccc3nc2c1 . > 100 µM

Now consider Cc1c(/C=N/NS(=O)(=O)c2ccccc2)no[n+]1[O-] . > 100 µM

Now consider Cc1cccc(-c2nc3c(C(=O)NCCN(C)C)cccc3[nH]2)c1 . 5.77 µM

Now consider c1ccc2c(c1)ccc1nc(-c3ccc4c(c3)OCO4)c3c(c12)CCC3 . > 100 µM

Now consider COc1ccc(Nc2nc(NNC(=O)Cc3ccccc3)nc(NNC(=O)c3ccncc3)n2)cc1 . > 10 µM

Now consider Nc1ccccc1C#C/C=C\C#Cc1ccccc1C(F)(F)F . 15.7 µM

Now consider OC1(C(O)(c2ccc(-c3ccccc3)cc2)c2ccc(-c3ccccc3)cc2)CCCCC1 . > 100 µM

Now consider N#C[C@H]1C(=O)C(c2nc3ccccc3[nH]2)S[C@H]1c1ccccc1 (stereo partly specified) . 57.2 µM

Now consider CN1C(=O)C(CCO)(C(C)(C)C)c2ccccc21 (stereo unspecified) . > 100 µM

Now consider O=P1(N(CCCl)CCCl)NCCCO1 (stereo unspecified) . > 250 µM

Now consider CCO[C@@H]1OC(=O)[C@](C)(C(C)=O)[C@@H]1C . > 100 µM

Now consider COc1ccc(/C=N/N=C(\N)NO)cc1OC . > 100 µM

Now consider O=c1n(C2CCCCC2)c(=C(Cl)Cl)c(=C(Cl)Cl)n1C1CCCCC1 . > 100 µM

Now consider COc1ccc(C(=O)/C=C/c2ccc(OCCCOc3ccc(/C=C/C(=O)c4ccc(OC)c(OC)c4)cc3)cc2)cc1OC . > 100 µM

Now consider C=C1[C@@H](C)[C@H]2[C@H](Cc3ccccc3)NC(=O)[C@]23OC(=O)/C=C/[C@H](O)CCC[C@@H](C)C/C=C/[C@H]3[C@@H]1O . 57.8 µM

Now consider C#Cc1cccc(Nc2ncnc3cc(OCCOC)c(OCCOC)cc23)c1 . 99 µM

Now consider COC(=O)NC(Nc1ccc(C)cc1)(C(F)(F)F)C(F)(F)F . > 100 µM

Now consider CCN1C2=NC(=O)N(C)C(=O)C2(Cl)C(C(SC)S(=O)(=O)c2ccc(C)cc2)c2ccccc21 (stereo unspecified) . > 100 µM

Now consider CCOP(=O)(OCC)C(NC(c1ccccc1)c1ccccc1)c1ccccc1 (stereo unspecified) . 28.5 µM

Now consider CCCCNC(=S)Nc1nc(C(=O)NNC(=S)NCc2ccccc2)cs1 . > 100 µM

Now consider O=S(=O)([O-])c1cccc2cccc(N=Cc3ccccc3[O-])c12.O=S(=O)([O-])c1cccc2cccc(N=Cc3ccccc3[O-])c12.[O]=[U]=[O] . > 100 µM

Now consider CC(=O)OCC1(CNc2nc(N)ncc2C#N)CC(CCc2ccccc2)C1 (stereo unspecified) . > 100 µM

Now consider O=c1oc2ccccc2c(O)c1C(c1ccc(O)cc1)c1c(O)c2ccccc2oc1=O . > 100 µM

Now consider CC(C)CCCC(C)[C@H]1CC[C@H]2NCCCC[C@]12C (stereo partly specified) . 5.88 µM
